Reference source: PubChem BioAssay

assay: modulators of HCV replicon luciferase signal, primary screen, HCV replication inhibitor project, Huh7 cells, luciferase reporter (AID 1109); conditions: 48 h, higher = more signal;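 note: huh7 hepatoma cells harbouring a luciferase neomycin HCV replicon reporter; luciferase luminescence as measure of HCV replicon replication; test concentration not given here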
z-score of -2 or higher: Fulfilled. Under -2: Not fulfilled.

Problem: Is the recorded value of z-score equal to or greater than -2 for this molecule? CCCCC(=C=CC[C@H](O)c1ccc(OCCO)cc1)C[C@H](O)COCc1ccccc1
Result: Fulfilled

Problem: Quick check: does COCCOC(=O)N1C(=O)[C@@]2(c3ccccc31)[C@H](c1ccccc1OCCO)N1[C@H](c3ccccc3)[C@H](c3ccccc3)OC(=O)[C@H]1[C@@H]2C(N)=O have z-score greater than or equal to -2?
Result: Not fulfilled

Problem: Please tell me: is the molecule C=CCOC(=O)[C@H]1[C@@H]2C(=O)O[C@@H](c3ccccc3)[C@@H](c3ccccc3)N2[C@@H](c2ccc(OCCOC(=O)[C@H]3C[C@H]4C(=O)N[C@@H](CCCCNC(C)=O)C(=O)N4[C@H]3c3cccc(OCCO)c3)cc2)[C@]12C(=O)Nc1ccc(I)cc12 at or over -2 in terms of z-score?
Result: Fulfilled

Problem: Given the entry C=C(COC)C(=O)CC[C@H](OC(=O)c1cccnc1)c1ccc(CO)o1 , answer whether its z-score meets or surpasses -2.
Result: Fulfilled

Problem: // inclusive: z-score at least -2? input: C[C@@]12COC[C@]13C=C(Br)[C@H](C2)[C@@]1(CO1)C3=O
Result: Not fulfilled

Problem: # bool: z-score of COc1ccc(C(O)C2C=CC3C(=O)N(c4ccccc4)C(=O)C3N2Nc2ccccc2F)cc1 (configuration not stated) >= -2
Result: Fulfilled

Problem: Has CCCCC(=C=CC[C@H](O)c1ccc(OCCO)cc1)C[C@H](O)c1cc(Cl)cc(Cl)c1O a recorded z-score greater than or equal to -2?
Result: Fulfilled

Problem: Say whether CCCCCCCCCCC(O)C1C=CC2C(=O)N(c3ccccc3)C(=O)C2N1Nc1ccccc1F (configuration not stated) shows z-score of -2 or more.
Result: Fulfilled

Problem: Does z-score meet or surpass -2 for C=CCN1C(=O)[C@]2(O[C@H](CCO)[C@@H]([Si](C)(C)c3ccc(OC)cc3)[C@@H]2C)c2cc(NC(=O)c3ccc(OC)cc3)ccc21 ?
Result: Not fulfilled

Problem: Quick check: does CCCNC(=O)[C@@]1(C)c2ccccc2C(=O)N(Cc2ccccc2)[C@H]1c1ccc(CO)cc1 have z-score greater than or equal to -2?
Result: Fulfilled

Problem: Does the reported z-score for Cc1nc2cc(Br)ccc2c(=O)n1Cc1cccc(O)c1 fall at or above the -2 mark?
Result: Fulfilled

Problem: Dear colleague, could you confirm whether COC(=O)[C@@]1(Cc2ccccc2CN=[N+]=[N-])N=C(c2ccc(OCCCO)cc2)O[C@H]1c1ccccc1 has z-score at or above -2?
Result: Not fulfilled

Problem: Reported z-score reaches at least -2 for COCCCNC(=O)[C@@]1(Sc2ccc(C)cc2)CC(=O)N(Cc2ccccc2Cl)[C@@H]1c1ccc(CO)cc1I ?
Result: Fulfilled

Problem: Is z-score for O=C1OCCC/C=C\[C@H]2OC34C=CCN(c5ccc6ccccc6c5)C(=O)[C@H]3N(CCCO)C(=O)[C@@H]4C12 (some centres not stated) at or above -2?
Result: Fulfilled

Problem: Record O=c1cccc(-c2ccc(F)cc2)o1 ; criterion: z-score no lower than -2. Met?
Result: Fulfilled

Problem: Could you tell me if the measured z-score of COc1ccc(C(O)C2C=CC3C(=O)N(c4ccccc4)C(=O)C3N2Nc2ccccc2)cc1 (configuration not stated) reaches -2 or more?
Result: Fulfilled

Problem: Reported z-score at or above -2? CN1C(=O)C2C=CC(C(O)c3ccc(F)cc3)N(NC(=O)OC(C)(C)C)C2C1=O (configuration not stated)
Result: Fulfilled
